The reader will find pIC50 measurements below, all made with Sodium-dependent noradrenaline transporter (Homo sapiens, UniProt P23975).
Sequence (P23975 whole entry): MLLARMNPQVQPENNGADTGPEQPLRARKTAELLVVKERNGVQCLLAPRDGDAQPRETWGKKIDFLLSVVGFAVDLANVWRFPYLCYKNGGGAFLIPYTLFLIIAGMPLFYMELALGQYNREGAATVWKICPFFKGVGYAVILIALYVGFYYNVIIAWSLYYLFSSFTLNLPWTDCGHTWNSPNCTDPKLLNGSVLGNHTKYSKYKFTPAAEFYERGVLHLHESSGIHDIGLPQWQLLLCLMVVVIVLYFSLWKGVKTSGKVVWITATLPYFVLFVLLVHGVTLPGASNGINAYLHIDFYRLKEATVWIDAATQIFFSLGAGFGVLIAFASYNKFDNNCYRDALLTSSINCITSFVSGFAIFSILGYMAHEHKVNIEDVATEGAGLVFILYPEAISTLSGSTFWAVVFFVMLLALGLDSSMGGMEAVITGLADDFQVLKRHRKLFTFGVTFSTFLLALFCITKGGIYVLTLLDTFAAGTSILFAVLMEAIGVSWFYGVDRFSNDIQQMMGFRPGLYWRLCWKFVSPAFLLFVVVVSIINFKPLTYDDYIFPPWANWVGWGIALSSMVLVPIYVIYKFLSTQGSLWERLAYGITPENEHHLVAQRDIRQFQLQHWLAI
Just so you know, pIC50 here is -log10 of the concentration in molar units; reply with that number alone.

O=C1NCC(c2cccc(Cl)c2)C1c1ccc(Cl)c(Cl)c1 (stereo unspecified)	5.56
O=C1NCC(c2ccc(Cl)cc2)C1c1ccccc1Cl (stereo unspecified)	5.45
O=C1NCC(c2cccc(Cl)c2)C1c1ccc(Cl)cc1 (stereo unspecified)	5.78
O=C1NCC(c2ccc(Cl)cc2)C1c1ccc2ccccc2c1 (stereo unspecified)	5.93
O=C1NCC(c2ccc(Cl)c(Cl)c2)C1c1ccccc1Cl (stereo unspecified)	6.29

Now take the following molecule into account.
Value sought: pIC50, system Sodium-dependent noradrenaline transporter (Homo sapiens, UniProt P23975), item O=C1NCC(c2ccccc2Cl)C1c1ccc2ccccc2c1 (stereo unspecified) . Result: 5.86

The measured values listed here are drawn from ChEMBL document CHEMBL2429823.
